Assay: Evaluation of conversion rate to active form in buffer solution (Experimental Example 1)
Format: physicochemical
Conditions: pH6.5, 1 hr, 37° C., 25 umol/L in buffer solution
Readout label: Production rate of Alvocidib (%)
The reply should be a number in %, with the unit left off.

compound CC(C)N(CC1CCCCN1)C(=O)Oc1cc(O)c2c(=O)cc(-c3ccccc3Cl)oc2c1[C@H]1CCN(C)C[C@H]1O (stereo partly shown) , Production rate of Alvocidib observed: 19.4

Memo: CN1CC[C@H](c2c(OC(=O)N(CCF)CC3CCCCN3)cc(O)c3c(=O)cc(-c4ccccc4Cl)oc23)[C@H](O)C1 (stereo partly shown) , reported Production rate of Alvocidib: 46.5

Looking up CN1CC[C@H](c2c(OC(=O)N(C)C[C@@H]3CCCCN3)cc(O)c3c(=O)cc(-c4ccccc4Cl)oc23)[C@H](O)C1 , I see its Production rate of Alvocidib listed as 18.3

Recorded result, CN1CC[C@H](c2c(OC(=O)N(C)CC3CCCCN3)cc(O)c3c(=O)cc(-c4ccccc4Cl)oc23)[C@H](O)C1 (stereo partly shown) , Production rate of Alvocidib: 18.9

The measurements presented in this section are drawn from patent US12617779B2.
